Source listed as ChEMBL document CHEMBL1201862.

For each entry below, report its IC50 value.
# Tested System: Mannose-6-phosphate isomerase (Homo sapiens, UniProt P34949)
# Sequence (P34949 whole entry): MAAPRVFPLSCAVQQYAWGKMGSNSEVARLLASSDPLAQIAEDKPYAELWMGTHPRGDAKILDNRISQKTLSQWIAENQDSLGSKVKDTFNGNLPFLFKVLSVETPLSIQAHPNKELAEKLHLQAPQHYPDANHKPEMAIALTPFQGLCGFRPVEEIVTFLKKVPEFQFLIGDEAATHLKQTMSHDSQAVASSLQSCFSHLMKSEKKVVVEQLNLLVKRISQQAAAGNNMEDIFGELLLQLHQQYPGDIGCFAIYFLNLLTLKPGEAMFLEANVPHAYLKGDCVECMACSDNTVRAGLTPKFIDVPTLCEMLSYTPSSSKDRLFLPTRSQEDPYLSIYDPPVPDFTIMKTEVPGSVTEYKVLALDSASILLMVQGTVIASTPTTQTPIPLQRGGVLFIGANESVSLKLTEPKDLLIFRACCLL
# Assay Text: human PMI inhibitors, high substrate, primary screen, biochemical, fluorescence intensity, high mannose 6-phosphate (AID 1220)
Active and inactive are the calls of the source.

// query IC50 value for entry `COc1ccccc1-n1c(SCC(=O)NCc2ccc3c(c2)OCO3)nc2cc([N+](=O)[O-])ccc21`
> 50 µM (not active)

Continue with CCC(C)N1C(=O)NC(=O)C2(Cc3c(ccc4ccccc34)N(C)C2)C1=O (stereo not given)
> 50 µM (not active)

Continue with `S=C(Nc1ccc2c[nH]nc2c1)Nc1ccc(Cl)cc1Cl`
> 50 µM (not active)

Continue with `OCC(CO)(CO)/N=C/c1c(O)ccc2ccccc12`
38.6 µM (active)

Continue with `COc1ccc2c(c1)C(C)=CC(C)(C)N2C(=O)Nc1ccccc1`
> 50 µM (not active)

---

# Assay Text: C. albicans growth with fluconazole, confirmation, fluorescence, retest (AID 2467)
# Format: functional, cell-based
Active and inactive are the calls of the source.
Measure: EC50

// query EC50 value for entry `N=C1/C(=C\c2ccc(SCc3ccccc3)o2)C(=O)N=C2SC=NN12`
5.72 µM (active)

Continue with `C[n+]1c2n(c3ccccc31)N=C(c1ccc(-c3ccccc3)cc1)CS2`
0.452 µM (active)

Continue with `COC(=O)c1cn(CC(=O)NC2CCCCC2)c2ccccc12`
> 38 µM (not active)

Continue with CCc1ccc(N2CC(C(=O)N/N=C/c3cc([N+](=O)[O-])ccc3O)CC2=O)cc1 (centres undefined)
> 38 µM (not active)

---

# Assay Text: Shn3 3'UTR reporter inhibitors, dose response, cell-based, Clone20 osteoblasts, firefly luciferase, cherry-picked (AID 624132);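 also: firefly luciferase luminescence from reporter carrying the Shn3 3'UTR in osteoblasts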
# Type: functional
Active and inactive are the calls of the source.
For each entry below, report its AC50 value.

// query AC50 value for entry `COc1ccc(C)cc1NS(=O)(=O)c1ccc(-c2cnc(C3CC3)o2)cc1`
3760 nM (active)

Continue with `CC(=O)c1c(C)[nH]c(C(=O)OCC(=O)Nc2ccc(Cl)cc2[N+](=O)[O-])c1C`
325 nM (active)

Continue with C=C1C(=O)[C@]23C[C@H]1CCC2[C@@]1(C)C(C[C@@H]3O)[C@](C)(C(=O)OC)CC[C@@H]1O (stereo partly specified)
2580 nM (active)

Continue with `COC(=O)C1=C(c2ccc(-c3ccccc3)c(F)c2)C[C@@H]2CC[C@H]1N2C(=O)N1CCCC1`
6060 nM (active)

Continue with `O=C(Cc1ccc(Cl)cc1Cl)Nc1ccncc1`
2560 nM (active)

Continue with `CS(=O)(=O)c1nc(-c2ccccc2)cc(C(F)(F)F)n1`
1530 nM (active)

---

# Assay Text: cells
# Assay type: functional
Calls of active or inactive are those of the source.
Measure: IC50

// query IC50 value for entry `Cc1cc(NC(=O)COC(=O)COc2ccc(C(=O)c3ccccc3)cc2)no1`
21.2 µM (active)

Continue with `CC(=O)c1ccc(OCC(=O)Nc2ccc3c(c2)CCC3)cc1`
> 50 µM (active)

Continue with `Cc1cc(N2CCN(c3ccccc3)CC2)nc(-n2nc(C)cc2C)n1`
0.94 µM (active)

Continue with `C/C(=N\NC(=O)c1cc2ccccc2cc1O)c1ccc(C)o1`
6.26 µM (active)
